Data provenance: the supplement of paper PMC10724198

tested on: Saccharomyces cerevisiae; assay: protein stability index of tFT-peptide fusion (C-terminal peptide) (PSI (0-1 scale)); higher = more stable (slower turnover); conditions: genetic background: wild type; temperature: 37 C;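 further: PSI is a weighted mean of sequencing reads over stability bins, variants kept only with over 10 reads, mCherry proximal and sfGFP distal, peptide attached via GGGS linker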
Would you please tag the item true when its protein stability index is 0.3 or above, and false when it is below?

Would you please look over these solved cases?
CTFFCICVFFLL = true
PVCRQVGVRLVA = true
PWFCYVQLVVPV = true
GGWSLFCIVVVV = false
SFQLVFLCVLIW = false

Q: # check: protein stability index of LFYVSFLFMLLF is greater than or equal to 0.3
Result: true

Q: Hi team, for FFSLMFVFLTVF , is the recorded protein stability index at or above 0.3?
Result: false

Q: Test whether the sequence RTALSSPRPALL records protein stability index of 0.3 or higher.
Result: true

Q: Could you please find out whether REAFVVLAVFFH has protein stability index that meets 0.3 or exceeds it?
Result: true

Q: Does the sequence VYVRYYVRVVVI have recorded protein stability index that is 0.3 or more?
Result: false
